- measured target: cdk2/cyclin A complex (Homo sapiens, UniProt P24941)
- experiment notes: inhibition assay of cdk2/Cyclin A activity (MultiScreen-PH phosphocellulose filter plate, 33P-ATP, histone H1)
- Type: biochemical
- reported conditions: ATP and histone H1 substrate concentrations varied; random bireactant system equation; read-out: inhibiting activity towards the cdk2/cyclin A complex (Ki)
observable: pKi
// scale note: pKi = -log10(conc_M); give the bare number

Query (molecule): CC(C)c1cnc(NC(=O)Cc2ccc(N(C)C)cc2)s1 ; field requested: pKi
7.00
